- System: Wolbachia pipientis
- protocol.notes: Anti-Wolbachia Cell-Based Screen
- Type: functional
- Set-up: scale not given: in the data most compounds retested in dose-response had high values
- measurement.setup: 5 µM
Screen size: about 48,000 compounds; about 13,000 (27%) showed an effect of 50% or more. This is one part of the list.
Percent Effect values for the compounds below.
test.readout: Percent Effect (%)

* Cc1ccnc(OC[C@]23COC[C@H]2CN(C(=O)Cc2ccsc2)C3)n1 | 106.6
* Cc1cccc(COC[C@]23COC[C@H]2CN(C(=O)c2ccsc2)C3)n1 | 4.122
* O=C(Cc1ccsc1)N1C[C@@H]2COC[C@]2(COc2cccnc2)C1 | 95.21
* Cc1cc(CNc2cc(-c3ccoc3C)nn2CCO)c(C)o1 | -24.32
* O=C(Cc1ccsc1)N1C[C@@H]2COC[C@]2(COCc2cccnc2)C1.O=C(O)C(F)(F)F | -1.782

---

- Test system: Wolbachia pipientis
- protocol.notes: Anti-Wolbachia Cell-Based Screen
- Type: functional
- Parameters: scale not given: in the data most compounds retested in dose-response had high values
- measurement.setup: 5 µM
In all, about 48,000 compounds went through this assay and about 13,000 (27%) showed an effect of 50% or more. The list shows a part of the results.
test.readout: Percent Effect (%)

* Cn1cc(-c2ncnc3c2CCN(C(=O)N2CCOCC2)CC3)cn1 | -0.924
* COC(=O)CC(NC(=O)c1cccc(N2CCCC2=O)c1)c1cccs1 (centres undefined) | 6.294
* c1ccc(-c2cnn3cc(CN4CCC5(CCO5)CC4)cnc23)cc1 | -14.3
* Cc1nccc(CC2COCCN(c3cnccn3)C2)n1 (centres undefined) | 114.6
* NC(=O)CC1CCN(C(=O)NCC2(c3ccccc3F)CC2)CC1 | 3.443
* Cc1noc(-c2ccnc(N3CCC(CN4CCOCC4)CC3)c2)n1 | 3.253
* O=C(NCCc1nnc2n1CCC2)NCC1(c2ccccc2)CC1 | 95.51
* COCCNC(=O)N1CCN(C(C)C(=O)NC2CCCC2)CC1 (centres undefined) | -10.58
* O=C(NCCc1ccc(Cl)s1)NCc1nnc2n1CCC2 | 3.587
* O=C1[C@H]2CN(c3cnccn3)C[C@H]2CN1CC1CC1 | -18.33
* Cc1ccc(CN2CCC[C@]3(C(=O)O)CN(CC4CC4)C[C@@H]3C2)s1.O=C(O)C(F)(F)F.O=C(O)C(F)(F)F | 98.43
* Cc1ccc(C(C(=O)NCCc2nc(C)cc(C)n2)N(C)C)cc1 (centres undefined) | 11.55
* COc1cc(N2CCc3ncnc(-c4cnn(C)c4)c3CC2)ncn1 | -4.032
* O=C(NCCC1=CCCCC1)NCc1nnc2n1CCC2 | 7.36
* Cc1ccc(C(=O)N2CCc3ncnc(-c4cnn(C)c4)c3CC2)o1 | 96.64
* CC(C)c1nnc(NCc2cc3n(n2)CCNC3)s1 | 7.297
* Cc1ccc(C(=O)N2CCc3ncnc(C)c3CC2)o1 | -4.866
* O=C(NCc1nnc2n1CCC2)NCC1(c2cccc(F)c2)CC1 | 112.3
* Cc1cc(C)c(CNC(=O)NCc2nnc3n2CCC3)c(=O)[nH]1 | 8.689
* O=C(CSc1nncs1)N1CCN(Cc2ccc(Cl)s2)CC1 | -21
* COCCNC(=O)C(C)N1CCN(C)CC1.O=C(O)C(=O)O (centres undefined) | 114.3
* O=C(NCCc1nnc2n1CCC2)N1CCC2(CCCCC2)C1 | -5.882
* O=C(NCCc1nnc2n1CCC2)c1ccccc1OC1CCCC1 | -0.3605
* O=C(O)c1cccc(CC2CCN(c3cnccn3)CC2)c1 | -21.8

---

Percent Effect values for the molecules below.
- System: Wolbachia pipientis
- protocol.notes: Anti-Wolbachia Cell-Based Screen
- Type: functional
- Parameters: scale not given: in the data most compounds retested in dose-response had high values
- measurement.setup: 5 µM
Hit rate of the full screen: of about 48,000 compounds, about 13,000 (27%) showed an effect of 50% or more. This is one part of the list.
test.readout: Percent Effect (%)

* CNC(=O)[C@H]1C[C@@H]2CN(S(=O)(=O)c3ccc(OC)cc3)C[C@@H]2N1C.O=C(O)C(F)(F)F | -8.898
* COCC1(NC(=O)Nc2nc(C)ns2)CCCC1 | -4.167
* CN1CCO[C@H]2CN(S(=O)(=O)c3ccc(C#N)cc3)C[C@H]21.O=C(O)C(F)(F)F | -17.08
* CC(=O)N1CCO[C@@H]2CN(S(=O)(=O)c3cccnc3)C[C@@H]2C1.O=C(O)C(F)(F)F | 105.8
* CN1CCO[C@@H]2CN(S(=O)(=O)c3ccccc3)CC[C@@H]2C1.O=C(O)C(F)(F)F | -5.775

---

- System: Wolbachia pipientis
- protocol.notes: Anti-Wolbachia Cell-Based Screen
- Format: functional
- Set-up: scale not given: in the data most compounds retested in dose-response had high values
- measurement.setup: 5 µM
In all, about 48,000 compounds went through this assay and about 13,000 (27%) showed an effect of 50% or more. The list shows a part of the results.
test.readout: Percent Effect (%)

* O=C(NCc1nc(NC2CCCC2)c2cc(Cl)ccc2n1)c1ccoc1 | 13.57
* N[C@H]1CN(S(=O)(=O)c2ccccc2)C[C@@H]1C1CC1 | -7.486
* O=C1CN(S(=O)(=O)c2ccc(F)cc2)CC(O)CN1CC1CC1 (stereo unspecified) | 106.3
* CN(C)C(=O)N[C@H]1CN(C2CCOCC2)[C@@H]2CCCO[C@H]12.O=C(O)C(F)(F)F | 16.52
* CCN1CCNC(=O)C12CCN(S(=O)(=O)c1ccc(F)cc1)CC2 | -6
* O=C(Nc1ccc2c(c1)OCO2)N1CCN(CCc2ccccc2)CC1 | 10.38
* CCOc1ccc(-c2ccnc(CC)n2)cc1C(=O)O | -9.54
* CC(C)CN1CC(O)CN(S(=O)(=O)c2ccc(F)cc2)CC1=O (stereo unspecified) | 103.6
* CC(C)CN1CCNC(=O)C12CCN(S(=O)(=O)c1ccc(F)cc1)CC2 | -14.33
* CCN(CC(C)C#N)C(=O)c1cccc(COc2ccc(C)nc2)c1 (stereo unspecified) | 11.78
* COc1ccc(Cn2nc(C(N)=O)ccc2=O)c(Cl)c1 | 8.088

---

Percent Effect values for the compounds below.
- Test system: Wolbachia pipientis
- protocol.notes: Anti-Wolbachia Cell-Based Screen
- Assay type: functional
- Design: scale not given: in the data most compounds retested in dose-response had high values
- measurement.setup: 5 µM
Out of some 48,000 compounds screened, about 13,000 (27%) showed an effect of 50% or more. This is one part of the list.
test.readout: Percent Effect (%)

* CN(Cc1cccc2cnccc12)C(=O)CCc1n[nH]c2c1CCCC2 | 113.4
* Cc1ccc(C(=O)N2CCC(n3cc(CN)nn3)CC2)cc1F | 8.756
* Cc1cc(C(=O)OCC2CCCN2C(N)=O)c(C)o1 (stereo not given) | -25.43
* O=C(CCc1n[nH]c2c1CCCC2)N1C[C@@H]2CC[C@H](C1)N(CC1CC1)C2 | 3.665
* Cc1cccc(CN2C[C@@H]3OCCN(S(=O)(=O)N(C)C)[C@@H]3C2)c1.O=C(O)C(F)(F)F | 1.609
* CCN1CCC2(CC1)CN(C(=O)c1cccnc1)c1ccc(Cl)cc12.O=C(O)C(F)(F)F.O=C(O)C(F)(F)F | 116.9
* CCCc1cc(C(=O)N(C)Cc2cccc3cnccc23)n(C)n1 | -5.635
* COc1cc(F)ccc1NC(=O)NCCNC(=O)OC(C)(C)C | 3.046
* COCCN(CC(F)F)c1cc(C(F)(F)F)nc2ncnn12 | -7.811
* Cc1cccc(CN2C[C@@H]3OCCN(CC(=O)N(C)C)[C@@H]3C2)c1.O=C(O)C(F)(F)F | 97.29

---

- Test system: Wolbachia pipientis
- protocol.notes: Anti-Wolbachia Cell-Based Screen
- Type: functional
- Parameters: scale not given: in the data most compounds retested in dose-response had high values
- measurement.setup: 5 µM
Hit rate of the full screen: of about 48,000 compounds, about 13,000 (27%) showed an effect of 50% or more. The list shows a part of the results.
test.readout: Percent Effect (%)

- Cn1nc(C(C)(C)C)cc1NC(=O)CSc1nnc[nH]1: -11.13
- Cc1ccc(NC2CCN(C(=O)c3cccc(F)c3F)CC2)nn1: -1.212
- O=C1CCC2(CCOC2)CN1Cc1ccc2nsnc2c1 (stereo unspecified): -12.42
- Cc1ccc(NC2CCN(C(=O)c3cc(C(N)=O)cs3)CC2)nn1: 7.568
- CCc1ncc2c(n1)CN(CC(=O)N1CCc3sccc3C1)CC2: 0.7848
- CCN(C)S(=O)(=O)c1ccc(Cl)cc1C#N: -3.723
- COc1ccc(C2C3=C(COC3=O)Nc3[nH]nc(C)c32)cc1OC (stereo unspecified): 3.297
- CC1=N[C@@]2(CC[C@@H]3CN(S(=O)(=O)C4CC4)C[C@@H]32)C(=O)N1CC(C)C: 6.738
- O=C(O)C(F)(F)F.O=C(O)C(F)(F)F.O=C(O)c1cc2c(nc1N1CCCC1)CCN(C1CCOCC1)CC2: -7.138
- COc1ccc(C(=O)N2CCC(Nc3ccc(C)nn3)CC2)c(F)c1: -2.664
- CC[C@H]1N(CC2CCOCC2)CCC[C@]12CCC(=O)N2.O=C(O)C(F)(F)F: -18.34
